These measurements were taken from patent US20160145322A1.

Target: T1, Sym-1705 (RSV-G type A central region peptide 145-201) (Respiratory syncytial virus type A, not fully specified; N-terminal biotin)
T1 construct: Synthetic peptide
T1 peptide: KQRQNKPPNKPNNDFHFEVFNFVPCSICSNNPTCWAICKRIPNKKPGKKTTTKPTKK
Experiment: ELISA, biotinylated peptide on avidin plate
observable: binding result

CB079.1 (antibody, V domains shown, Tested as human IgG from the pCP9-kappa vector) VH: EVQLVESGGDLVQPGGSLRLSCSASGFVFTSYSFHWVRQAPGKGLEYVSSVSADGGSTYYADSVRGRFLISRDNSKNTLSLQMSSLRPDDTALYYCVPQPSLLWFGDLRSWGQGTLVTVSS VL: DIVMTQSPLSLPVTPGEPASISCRSSQSLLHSNGYNYLDWYLQKPGQSPQLLIYLSSNRASGVPDRFSGSGSGTDFTLKISRVEAEDIGIYYCMQSLQTLTFGQGTRLEIK; binds
CB065.1 (antibody, V domains shown, Tested as human IgG from the pCP9-kappa vector) VH: QVQLVESGGGVVQPGRSLRLSCAASGFTFSNYGMHWVRQAPGKGLEWVTIISYDESTTLYADSVKGRFTISRDNSKNTVYLQMNSLRPEDTAVYYCARDHFDPSGYFWYFDLWGRGTLVTVSS VL: DIVMTQSPLSLSVTPGQPASISCKSSQSLLQRDGKTYLYWYLQKPGQSPQLLIYEVSSRFSGVPDRFSGSGSGTDFTLKISRVEAEDVGVYYCMQGIRLPRTFGQGTKVEIK; binds
CB047.1 (antibody, V domains shown, Tested as human IgG from the pCP9-kappa vector) VH: EVQLVESGGGLVQPGGSLRLSCAASGFSFSNYAMSWVRQAPGKGLEWVSDISGSGNSTNFADSVKGRFTISRDNSKNTLYLQMSSLRAEDTAVYYCAKFRVPTYCVNGICYQGLPGFDIWGQGTMVTVSS VL: DIQMTQSPSSLSASVGDRVTITCQASQDISDYLNWYQQKPGKAPKLLIYDASNLETGVPSRFSASGSGTDFTFTISSLQPEDIATYYCQHYHNLPPLFGGGTKVEIK; binds
